B1: TMEM40 (parent)
chain: YGETDFHKQDGKAGLFSQEQYERN

# Variants of: B1
# assayInfo: protein stability index of a GFP-peptide fusion (GPS, HEK-293T) (PSI 1-6); higher = more stable;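 note: lentivirally expressed fusions sorted by FACS into six bins by GFP to DsRed ratio, PSI derived from sequencing read proportions per bin multiplied by bin number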
# conditionsUsed: c terminus: a fixed tail appended
metric: protein stability index
Reply with just the number.

Solved cases (4 shown):
Q18F = 3.65
K8R = 3.86
K12H = 4.28
H7A = 4.48

// query protein stability index value for entry `K8M` 3.71

// query protein stability index value for entry `S17N` 4.52

// query protein stability index value for entry `K8H` 4.18

// query protein stability index value for entry `G2Y` 4.57

// query protein stability index value for entry `Y21Q` 4.44

Measured values drawn from the supplement of paper PMC10567573 for this set.
